biological target: KCNQ2/3 channels (Homo sapiens, UniProt O43525+O43526); assay: Fluorescence assay using a voltage-sensitive dye (fluorimetry); details: CHO-K1 cells expressing KCNQ2/3; agonistic activity
I'd appreciate it if you marked entries Condition met when EC50 is lower than 80 nM and Condition not met when it is not.

>>> df
                                        smi        label_value
0  O=C(CCC1CCCCC1)Nc1cccnc1SCCS(=O)(=O)c1ccccc1      Condition met
1  O=C(/C=C/c1ccc(F)cc1)Nc1cccnc1SCCS(=O)(=O)c1cccc(C(F)(F)F)c1  Condition not met
2  O=C(Nc1cccnc1SCCS(=O)(=O)c1cccc(C(F)(F)F)c1)c1cccs1  Condition not met
3  O=C(Nc1cccnc1SCCCc1ccc(F)cc1)c1ccc(F)c(F)c1  Condition not met
4  O=C(Cc1cccs1)Nc1cccnc1SCCS(=O)(=O)c1ccccc1  Condition not met
5  O=C(CC1CCCC1)Nc1cccnc1SCCS(=O)(=O)c1cccc(C(F)(F)F)c1      Condition met
6    CC(C)(C)CC(=O)Nc1cccnc1SCCSc1ccc(F)cc1      Condition met
7        O=C(Cc1cccs1)Nc1cccnc1SCCSc1ccccc1  Condition not met
8  O=C(CCc1cccs1)Nc1cccnc1SCCS(=O)(=O)c1cccc(C(F)(F)F)c1  Condition not met

====

The following molecules are shown together with reported Emax values.
molecular target: KCNQ2/3 channels (Homo sapiens, UniProt O43525+O43526); construct: expressed in transfected cells; host or cells: CHO-K1; test: Fluorescence assay using a voltage-sensitive dye (fluorimetry); format: cell-based; conditions: CHO-K1 cells expressing KCNQ2/3; relative to retigabine = 100%; negative values = antagonistic; read-out: Fluorimetry % efficacy (I/EC50, retigabine = 100%)
PROPERTY LABEL: Emax (%)

>>> df
                                    molecule                                    system  observed_result
 0  O=C(CC1CCCCC1)Nc1cccnc1SCCSc1cccc(C(F)(F)F)c1  KCNQ2/3 channels (Homo sapiens, UniProt O43525+O43526)              108
 1        O=C(Cc1cccs1)Nc1cccnc1SCCSc1ccccc1  KCNQ2/3 channels (Homo sapiens, UniProt O43525+O43526)              152
 2  O=C(CC1CCOCC1)Nc1cccnc1SCCS(=O)(=O)c1cccc(C(F)(F)F)c1  KCNQ2/3 channels (Homo sapiens, UniProt O43525+O43526)               52
 3  O=C(CC1CCCCC1)Nc1cccnc1SCCS(=O)(=O)c1cccc(C(F)(F)F)c1  KCNQ2/3 channels (Homo sapiens, UniProt O43525+O43526)              142
 4  O=C(Cc1ccccn1)Nc1cccnc1SCCS(=O)(=O)c1cccc(C(F)(F)F)c1  KCNQ2/3 channels (Homo sapiens, UniProt O43525+O43526)              101
 5  O=C(Nc1cccnc1SCCS(=O)(=O)c1cccc(C(F)(F)F)c1)C1CCCOC1 (stereo not drawn)  KCNQ2/3 channels (Homo sapiens, UniProt O43525+O43526)               35
 6  O=C(Cc1cccnc1)Nc1cccnc1SCCS(=O)(=O)c1cccc(C(F)(F)F)c1  KCNQ2/3 channels (Homo sapiens, UniProt O43525+O43526)               50
 7  O=C(CC1CCCCCC1)Nc1cccnc1SCCS(=O)(=O)c1ccc(F)cc1  KCNQ2/3 channels (Homo sapiens, UniProt O43525+O43526)              114
 8  COc1ccccc1CC(=O)Nc1cccnc1SCCS(=O)(=O)c1cccc(C(F)(F)F)c1  KCNQ2/3 channels (Homo sapiens, UniProt O43525+O43526)              -45
 9        O=C(Cc1cccs1)Nc1cccnc1SCCCc1ccccc1  KCNQ2/3 channels (Homo sapiens, UniProt O43525+O43526)              106
10  O=C(CC1CCc2ccccc2C1)Nc1cccnc1SCCS(=O)(=O)c1cccc(C(F)(F)F)c1 (stereo not drawn)  KCNQ2/3 channels (Homo sapiens, UniProt O43525+O43526)               59
11  O=C(Cc1cccs1)Nc1cccnc1SCCSc1cccc(C(F)(F)F)c1  KCNQ2/3 channels (Homo sapiens, UniProt O43525+O43526)               97
12  O=C(Cc1cccs1)Nc1cccnc1SCCCc1cccc(C(F)(F)F)c1  KCNQ2/3 channels (Homo sapiens, UniProt O43525+O43526)              165
13  COc1cccc(CC(=O)Nc2cccnc2SCCS(=O)(=O)c2cccc(C(F)(F)F)c2)c1  KCNQ2/3 channels (Homo sapiens, UniProt O43525+O43526)              109
14  O=C(/C=C/c1ccc(F)cc1)Nc1cccnc1SCCS(=O)(=O)c1cccc(C(F)(F)F)c1  KCNQ2/3 channels (Homo sapiens, UniProt O43525+O43526)              109
15    CC(C)(C)CC(=O)Nc1cccnc1SCCSc1ccc(F)cc1  KCNQ2/3 channels (Homo sapiens, UniProt O43525+O43526)              129
16  O=C(CCc1ccccc1)Nc1cccnc1SCCS(=O)(=O)c1cccc(C(F)(F)F)c1  KCNQ2/3 channels (Homo sapiens, UniProt O43525+O43526)              112
17  O=C(Cc1cccc(O)c1)Nc1cccnc1SCCS(=O)(=O)c1cccc(C(F)(F)F)c1  KCNQ2/3 channels (Homo sapiens, UniProt O43525+O43526)               31

====

target: KCNQ2/3 channels (Homo sapiens, UniProt O43525+O43526); experiment: Fluorescence assay using a voltage-sensitive dye (fluorimetry); details: CHO-K1 cells expressing KCNQ2/3; agonistic activity
PROPERTY LABEL: EC50 (nM)

>>> print(df.to_string())
                                   molecule  observed_result
0  O=C(Cc1cccs1)Nc1cccnc1SCCOc1cccc(C(F)(F)F)c1 [Example 22]              732
1  O=C(CC1CCc2ccccc2C1)Nc1cccnc1SCCS(=O)(=O)c1cccc(C(F)(F)F)c1 (stereo not shown) [Example 52]              208
2  O=C(Cc1ccccc1O)Nc1cccnc1SCCS(=O)(=O)c1cccc(C(F)(F)F)c1 [Example 12]              168
3  O=C(CCCc1ccccc1)Nc1cccnc1SCCS(=O)(=O)c1cccc(C(F)(F)F)c1 [Example 25]               71

====

molecular target: KCNQ2/3 channels (Homo sapiens, UniProt O43525+O43526); assay: Fluorescence assay using a voltage-sensitive dye (fluorimetry); conditions: CHO-K1 cells expressing KCNQ2/3; agonistic activity
pEC50: −log10 of the molar value.
The following compounds are shown together with reported pEC50 values.
PROPERTY LABEL: pEC50

                                   compound  observed_result
0  O=C(Cc1cccs1)Nc1cccnc1SCCS(=O)(=O)c1cccc(C(F)(F)F)c1             7.51
1  O=C(CCc1ccccc1)Nc1cccnc1SCCS(=O)(=O)c1cccc(C(F)(F)F)c1             6.68
2  COc1cccc(CC(=O)Nc2cccnc2SCCS(=O)(=O)c2cccc(C(F)(F)F)c2)c1             6.23
3  COc1ccc(CC(=O)Nc2cccnc2SCCS(=O)(=O)c2cccc(C(F)(F)F)c2)cc1             7.26
4  O=C(Cc1cccs1)Nc1cccnc1SCCCc1cccc(C(F)(F)F)c1             6.80
5        O=C(Cc1cccs1)Nc1cccnc1SCCCc1ccccc1             6.85
6  O=C(Cc1ccccn1)Nc1cccnc1SCCS(=O)(=O)c1cccc(C(F)(F)F)c1             5.99
7  Cc1ccnc(SCCS(=O)(=O)c2cccc(C(F)(F)F)c2)c1NC(=O)Cc1cccs1             6.46
8  O=C(CC1CCCCCC1)Nc1cccnc1SCCS(=O)(=O)c1cccc(C(F)(F)F)c1             7.72
9  O=C1CCCC(CC(=O)Nc2cccnc2SCCS(=O)(=O)c2cccc(C(F)(F)F)c2)C1 (stereo not shown)             5.44
